- system: E. faecium α-CA (Efα-CA) (Enterococcus faecium)
- Assay type: biochemical
- condition_summary: read-out: Ki Efα-CA
- Procedure: Both Efα-CA and Efγ-CA were recombinantly expressed and purified as follows. A pHis2 plasmid (GenScript) containing either the Efα-CA sequence or Efγ-CA sequence was used for the expression of hexa-histidine tagged protein in a bacterial culture. […] Starter cultures were grown at 37 °C with shaking at 225 rpm overnight. […] Fractions that contained the desired protein, as determined by SDS-PAGE, were combined and subjected to TEV protease for His-tag cleavage. […]
attribute_measured: Ki (µM)
Answers are plain numbers, in µM.

Query block: Report Ki on E. faecium α-CA (Efα-CA) (Enterococcus faecium) for this entry: "CC(=O)Nc1ccc(S(N)(=O)=O)cc1"
Result block: 0.18

====

- system: E. faecium α-CA (Efα-CA) (Enterococcus faecium, UniProt Q3XYE8)
- Sequence (Q3XYE8 entry or part of it): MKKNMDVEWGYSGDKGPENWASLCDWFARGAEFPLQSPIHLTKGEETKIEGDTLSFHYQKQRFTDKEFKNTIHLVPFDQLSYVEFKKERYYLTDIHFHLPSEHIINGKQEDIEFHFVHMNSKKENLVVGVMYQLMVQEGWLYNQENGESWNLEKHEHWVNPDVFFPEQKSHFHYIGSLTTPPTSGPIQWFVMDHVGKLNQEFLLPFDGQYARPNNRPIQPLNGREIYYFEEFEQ
- Type: biochemical
- condition_summary: recombinant Efα-CA; Ki from IC50 via Cheng–Prusoff; read-out: Ki Efα-CA
Give pKi for every item shown.
Give bare numbers, as −log10 of the molar value.

Below, each entry is followed by its recorded pKi result.
>>> df
                                   compound  reading
0  NS(=O)(=O)c1nnc(NC(=O)CC2CC2)s1 [Cmpd 15]     7.93
1      CC(=O)Nc1ncc(S(N)(=O)=O)s1 [Cmpd 29]     6.43
2  NS(=O)(=O)c1nnc(NC(=O)C2CCCC2)s1 [Cmpd 10]     8.01

List the reported pKi of each compound below.
1. NS(=O)(=O)c1nnc(NC(=O)CC2CCCC2)s1 [Cmpd 17]
2. NS(=O)(=O)c1nnc(NC(=O)C2CCC2)s1 [Cmpd 9]

Result block:
7.66
7.57

====

- system: E. faecium γ-CA (Efγ-CA) (Enterococcus faecium, UniProt Q3XX77)
- Sequence (Q3XX77 entry or part of it): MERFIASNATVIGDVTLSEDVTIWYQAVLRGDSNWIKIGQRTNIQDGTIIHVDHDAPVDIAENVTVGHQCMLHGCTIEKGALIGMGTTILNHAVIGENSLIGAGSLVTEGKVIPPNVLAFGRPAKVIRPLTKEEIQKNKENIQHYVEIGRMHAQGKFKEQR
- assay_overview: biochemical
- Format: biochemical
- condition_summary: Ki Efγ-CA, recombinant Efγ-CA; Ki from IC50 via Cheng–Prusoff
Give Ki for every item shown.
Numeric answer plus unit only.

                                   molecule                                    system  attribute_measured  reading
0  NS(=O)(=O)c1nnc(NC(=O)CC2CCCCC2)s1 [Cmpd 18]  E. faecium γ-CA (Efγ-CA) (Enterococcus faecium, UniProt Q3XX77)                  Ki   305 nM
1      CCC(=O)Nc1nnc(S(N)(=O)=O)s1 [Cmpd 1]  E. faecium γ-CA (Efγ-CA) (Enterococcus faecium, UniProt Q3XX77)                  Ki   250 nM
2  CN1CCN(CC(=O)Nc2nnc(S(N)(=O)=O)s2)CC1 [Cmpd 25]  E. faecium γ-CA (Efγ-CA) (Enterococcus faecium, UniProt Q3XX77)                  Ki  64.7 nM
3   CC(C)C(=O)Nc1nnc(S(N)(=O)=O)s1 [Cmpd 2]  E. faecium γ-CA (Efγ-CA) (Enterococcus faecium, UniProt Q3XX77)                  Ki   218 nM
4  NS(=O)(=O)c1nnc(NC(=O)C2CCCCC2)s1 [Cmpd 11]  E. faecium γ-CA (Efγ-CA) (Enterococcus faecium, UniProt Q3XX77)                  Ki   131 nM

Query block: Give the measured Ki for NS(=O)(=O)c1nnc(NC(=O)CCC2CCCCC2)s1 [Cmpd 20]
Result block: 346 nM

====

- system: E. faecium γ-CA (Efγ-CA) (Enterococcus faecium, UniProt Q3XX77)
- assay_overview: biochemical
- Format: biochemical
- condition_summary: Ki Efγ-CA, recombinant Efγ-CA; Ki from IC50 via Cheng–Prusoff
attribute_measured: Ki

Below, each entry is followed by its recorded Ki result.
>>> df
                        given_smiles  attribute_measured  reading
0  CC(C)(C)C(=O)Nc1nnc(S(N)(=O)=O)s1                  Ki   441 nM
1       CCCC(=O)Nc1nnc(S(N)(=O)=O)s1                  Ki   325 nM
2      NS(=O)(=O)c1nnc(NCC2CCCCC2)s1                  Ki   398 nM
3  NS(=O)(=O)c1nnc(NC(=O)c2ccccc2)s1                  Ki  94.8 nM
4             CCNc1nnc(S(N)(=O)=O)s1                  Ki   505 nM

Query block: Give the measured Ki for "NS(=O)(=O)c1nnc(NC(=O)CN2CCOCC2)s1"
Result block: 56.4 nM

====

Give Ki for every item shown.
- system: UniProt:Q3XYE8
- Assay type: biochemical
- condition_summary: recombinant Efα-CA; Ki from IC50 via Cheng–Prusoff; read-out: Ki Efα-CA
- Method: Both Efα-CA and Efγ-CA were recombinantly expressed and purified as follows. A pHis2 plasmid (GenScript) containing either the Efα-CA sequence or Efγ-CA sequence was used for the expression of hexa-histidine tagged protein in a bacterial culture. […] Starter cultures were grown at 37 °C with shaking at 225 rpm overnight. […] Fractions that contained the desired protein, as determined by SDS-PAGE, were combined and subjected to TEV protease for His-tag cleavage. […]
One number for each entry, in nM.

Below, each entry is followed by its recorded Ki result.
                               molecule  result_unit  reading
0       CC(C)CC(=O)Nc1nnc(S(N)(=O)=O)s1           nM     62.7
1  CC1(C(=O)Nc2nnc(S(N)(=O)=O)s2)CCCCC1           nM     44.5
2        NS(=O)(=O)c1nnc(NC(=O)C2CC2)s1           nM     36.2

List the reported Ki of each molecule below.
1. CCCCCCC(=O)Nc1nnc(S(N)(=O)=O)s1
2. NS(=O)(=O)c1nnc(NCc2ccccc2)s1
3. CC(C)(C)CC(=O)Nc1nnc(S(N)(=O)=O)s1

Result block:
1. 78.8
2. 163
3. 69.6

List the reported Ki of each molecule below.
1. NS(=O)(=O)c1nnc(NC(=O)CCC2CCCC2)s1
2. CC1CCC(C(=O)Nc2nnc(S(N)(=O)=O)s2)CC1 (centres unmarked)
3. NS(=O)(=O)c1nnc(NC(=O)CN2CCCCC2)s1
4. NS(=O)(=O)c1nnc(NC(=O)CN2CCCC2)s1

Result block:
39.3
29.6
29.5
38.1

Query block: Give the measured Ki for "NS(=O)(=O)c1nnc(NC(=O)CC2CCC2)s1"
Result block: 18.4
